- assayExplanation: soluble on expression in E. coli; label from the status in PepcDB or PDB records
parameterMeasured: soluble on expression in E. coli

{"residueString": "MIENHLYSLVTVVKYKLLPCLLAIFLTGCDRTEVTLSFTPEMASFSNEFDFDPLRGPVKDFTQTLMDEQGEVTKRVSGTLSEEGCFDSLELLDLENNTVVALVLDANYYRDAETLEKRVRLQGKCQLAELPSAGVSWETDDNGFVIKASSKQMQMEYRYDDQGYPLGKTTKSNDKTLSVSATPSTDPIKKLDYTAVTLLNNQRVGNVKQSCEYDSHANPVDCQLIIVDEGVKPAVERVYTIKNTIDYY", "result": "not soluble"}
{"residueString": "MIFEVPIDHFPASSQQVSKTREHKPLRLSTVSLHSKEVNAAVAPLSPSVRRSQFNFSSEVTKSALPKVRASIPPLKRALTSPALPVQHLNLNLVRKGSNPSSQTSRNNSVTDLLKSELFKMPSRLLSTAVSLHQLA", "result": "not soluble"}

---

- assayExplanation: soluble on expression in E. coli; label from the status in PepcDB or PDB records
parameterMeasured: soluble on expression in E. coli

{"residueString": "MGSDKIHHHHHHAKTTTATTTQASVKKQTYTILSSSFYKTAKTYHTKDAKPVVYKAVMGADRPTMTLTAKGKLKAGTTYKVTKQVKVKINAKKSQKYSYVKGQGWVVSSKLTAGKFKAASGVKKTATKYTIVSVTALKKAKTVHTKDARPVVYKAAVAADRPTMTLTTNGKLKAATTYKVTKQAKLKNAAKKTVAFSYVSGHGWVLQRDLTNGQFMNAD", "result": "not soluble"}
{"residueString": "MQNVVGIDFQKSGKMEYYSPKGFDLDVGDWVVVESKRGLEMGRVKYAPLDVADQDVTLPLKEIVRLATEDDLLQYEKNEYDADEAMALCKETIQQHELEMRLVNCEYTLDKSKVIFNFTSDERVDFRKLVKVLAQKLKTRIELRQIGVRDEAKLLGGIGPCGRSLCCSTFLGDFEPVSIKMAKDQNLSLNPTKISGACGRLMCCLKYENDYYEEARAQLPDVGDAIETPEGNGKVIGLNILDISMQVKVEGLEQPLEYKMEELETLNLEHHHHHH", "result": "not soluble"}
{"residueString": "GSHMDTSLAEEVQQTMATLAPNRFFFMSPYRSFTTSGCFARFDEPAVNGDSPDSPFQQKLAALFADAKAQGIKNPVMVGAIPFDPRQPSSLYIPESWQSFSRQEKQASARRFTRSQSLNVVERQAIPEQTTFEQMVARAAALTATPQVDKVVLSRLIDITTDAAIDSGVLLERLIAQNPVSYNFHVPLADGGVLLGASPELLLRKDGERFSSIPLAGSARRQPDEVLDREAGNRLLASEKDRHEHELVTQAMKEVLRERSSELHVPSSPQLITTPTLWHLATPFEGKANSQENALTLACLLHPTPALSGFPHQAATQVIAELEPFDRELFGGIVGWCDSEGNGEWVVTIRCAKLRENQVRLFAGAGIVPASSPLGEWRETGVKLSTMLNVFGLH", "result": "soluble"}
{"residueString": "MENFAEIVGIGPAGVISITGGGGKTSLMFHLARQLAYSGKRVLTTTTTKILAPSVEESRTLLISQDPQVILRHAKAHPGPGVHVSAAAGHIPHTEKLQGFPREAIRTFEDSGEFDWVVVEADGAARKPLKAPAAHEPVIPGNSTIVVALAGLEVLGRPLGEEMVFRSELAGELMQIPQGETITVPALARLLAHPSGGFKGAPPQARRFIFLNKADTPELQEKGGEVALQLKEIAPSVAEAVIVGQLRQEITLHRVYPRGELEHHHHHH", "result": "soluble"}
{"residueString": "MGISSSAPESLGFDTVLPPHLRQHSHPPAGISPKRFLCRDLWPAELPSPAVSSAVSGPTWPEGISAPVFGKQTHVPQRTGSQDCHSCDPTLPEWERKIPP", "result": "not soluble"}
{"residueString": "VNYRTPAEIMSVANELLTQINPDIAPAMAIRESGREVVNLPLDADLSAVMDSLREEDSQRTIAVISSRRHHESDFYLVDDIKGLEFDHVIVVDPAGIVEESPQGLQDLYVAVTRATQSLTILGE", "result": "not soluble"}
{"residueString": "MIKNNIKHTWYFGHPQQLVWDYLTKPELLSQWLMESDFQPVAGHTFMFNTKPKVKVGFDGLIYCQVLKVQPDHELEHHHHHH", "result": "soluble"}
{"residueString": "GPGSMEYVGALYKDYGELLSTAQNSFLNVQSDVEGVEDVKNICARLHISIHRWEHSEELYAVRNQLHLQTQVLKAHSDHSSRVLQECVQRDELIKMHTEKSALLATKLRKQSSEVDKLQKECDKLDRKIAKRSEVAQKDLDAMAVKSTATVLSLTSQFFKVMHKNGAFIADRFSPDRAGVGAHDFDTASDDAVTGTLRRLHSVRSEMSSVAPSAVYGQNYNTFHPSEADTRVSDGARNSGIPLRYETSVPPAMSA", "result": "not soluble"}
{"residueString": "IDHIEVLRDGASARYGSDAIAGVINIILKSADHGGSISSKYGQYKKGDGIQRQVSGNTGFALGDNGTLNLSGEGANNDYTNRAGDDLRASSIGSTTYGQQVFRQGEPETHEGKLQYNAEYSFNDAAEFYSFGGYSKRRGETAAFYRPSNASNNIAAIYPNGYLPLIHGTLEDTTFVTGLRGELADDWHYDLSANYGKNSYELRTKTINTSLGLNTPRSFDNGTLTNDQKQLSLDLSREFNATWLPYPVSVAFGAEYLRQGYQIEAGQAESYFQTGSSGLGGFRAADAGSYSRHNFAQYLDVETNLTEKLGVSAAVRHEDYSDFGSNVSGSLSARYDFTP", "result": "not soluble"}
{"residueString": "TVSRENRAEDSRVAAKGVAFGGGETVRIAAEPSVWSNADAVFLDPFFTSANLYDTLSADEGRGRCRRLAEQAASAHGAGKPVLVRVRNVRHVEAALNAGADILYLGGGLMSDLAVLNEAGSLNIPLVLCKDKHHSAEDWLNAAEYVVSRGNRHLILGESGVLGHTKGHPYRLDVESIVKVRQISHLPVIANITGLWSRDMPQEILYGLAKAAGACGIV", "result": "not soluble"}
{"residueString": "MIAQLPSELLSLQLPLRIRIGDAQAFDLGPDPQVTMVIRDPSLLTEITHPSLDALGKAYVEKRLDIEGPISQVIGIGDALSEALGEPDGGAPPVRESHDKDTDAEAIHYHYDLSNDFYQLWLDPEMVYSCAYFETGKEDLATAQLAKLRHLCRKLRLQPGEKLLDVGCGWGGLARLAAREFGVEVTGITLSKEQLALGRERVKAEGLEDRVTLKLLDYRDLPRDGRFDKVVSVGMFEHVGHANLGLYFQQLYEAVRPGGLVMNHGITSRYTDGRPVGKGAGDFIDRYVFPHGELPHLSLAVARMSEAGLEVVDVESLRLHYARTLDFWSANLEARLKEAARLVPEETLRIWRLYLAGCAYGFKRGWINL", "result": "not soluble"}
{"residueString": "PWTQNKRNLKHLNQLKEDILNNFEDLKLKDEKIIVMLSGGKDSAVSLAVAKELGLNVHLCVHFVHKWSWDISTNEAKKLADRFNIPIIFPNVTEELAKKTQGAKGKSICRICKTIMKARMIDIAKEENAKIIMTGETALEKIAGPVFQYIRENNTNVKRKDEFELYKKMEITKVPKRYKIHFFRPLIRVGHFDVFNLQKYYNIDIKRVSE", "result": "not soluble"}
